These entries and their values trace back to ChEMBL document CHEMBL3988442.

- ASSAY TARGET: Shiga toxin 2 (Escherichia coli O157:H7) (UniProt P09385+P09386)
- TEST PROTOCOL: E. coli 0.157:H7 Shiga Toxin SOP - stx2 screening assay
- Format: functional
- Set-up: scale not given: direction of the effect not stated beside the values
- DETAILS: 30 µM
# Percent Effect annotations
ENDPOINT: Percent Effect (%)

{"MOLECULE": "Cc1cc(C)cc(NS(=O)(=O)c2cc3c(c(C(=O)O)c2)OCCO3)c1", "ENDPOINT": "Percent Effect", "REPORTED MEASUREMENT": -24.3}
{"MOLECULE": "O=c1ccc(-c2cccs2)nn1CN1CCN(Cc2ccccc2)CC1", "ENDPOINT": "Percent Effect", "REPORTED MEASUREMENT": 9.12}
{"MOLECULE": "CC(C)c1ccc(C(O)Cn2c(=O)c(C#N)cn(C3CC3)c2=O)cc1 (centres undefined)", "ENDPOINT": "Percent Effect", "REPORTED MEASUREMENT": 14.3}
{"MOLECULE": "COc1ccc(C2C3=C(COC3=O)Nc3[nH]nc(C)c32)cc1OC (centres undefined)", "ENDPOINT": "Percent Effect", "REPORTED MEASUREMENT": -21.4}
{"MOLECULE": "Cc1cc(C)n(CC2CCCN2C(=O)c2ccc3c(c2)OCO3)n1 (centres undefined)", "ENDPOINT": "Percent Effect", "REPORTED MEASUREMENT": -23.4}
{"MOLECULE": "Cc1csc(NC(=O)CN2CCC(c3ccnn3CCO)CC2)n1", "ENDPOINT": "Percent Effect", "REPORTED MEASUREMENT": -16.7}
{"MOLECULE": "CCn1cnnc1C1CCN(C(=O)c2ccc3cc[nH]c3c2)CC1", "ENDPOINT": "Percent Effect", "REPORTED MEASUREMENT": -9.96}
{"MOLECULE": "CNS(=O)(=O)c1ccc(CNC(=O)NCC2CCOC2)cc1 (centres undefined)", "ENDPOINT": "Percent Effect", "REPORTED MEASUREMENT": 25.4}
{"MOLECULE": "CCc1nnc2n1CCN(C(=O)COCCc1ccccc1)C2", "ENDPOINT": "Percent Effect", "REPORTED MEASUREMENT": 24.8}
{"MOLECULE": "CSCCNC(=O)c1ccc(OC2CCN(CC(C)(C)C)CC2)c(Cl)c1", "ENDPOINT": "Percent Effect", "REPORTED MEASUREMENT": -38.1}
{"MOLECULE": "CC(=O)N1C[C@H](NC(=O)c2cscn2)[C@@H]2OCCC[C@@H]21", "ENDPOINT": "Percent Effect", "REPORTED MEASUREMENT": 6.1}
{"MOLECULE": "Cn1cc(CN2CCCN(C(=O)c3cn4ccccc4n3)CC2)cn1", "ENDPOINT": "Percent Effect", "REPORTED MEASUREMENT": -25.9}
{"MOLECULE": "CCC(CC)c1cc(C(=O)N2CCCC(n3cncn3)C2)on1 (centres undefined)", "ENDPOINT": "Percent Effect", "REPORTED MEASUREMENT": -2.33}
{"MOLECULE": "COc1cc(C)c(C(C)NC(=O)Nc2nnc(C)s2)cc1OC (centres undefined)", "ENDPOINT": "Percent Effect", "REPORTED MEASUREMENT": 9.98}
{"MOLECULE": "Cc1cnn(CCNCc2nc(-c3ccccc3Cl)no2)c1", "ENDPOINT": "Percent Effect", "REPORTED MEASUREMENT": -10.8}
{"MOLECULE": "CCC(C)c1noc(C2CCN(C(=O)c3cccs3)CC2)n1 (centres undefined)", "ENDPOINT": "Percent Effect", "REPORTED MEASUREMENT": -48}
{"MOLECULE": "O=C1CSC(c2cccs2)c2cnn(C3CCCC3)c2N1 (centres undefined)", "ENDPOINT": "Percent Effect", "REPORTED MEASUREMENT": 28.5}
{"MOLECULE": "CO[C@@H]1CN(Cc2scnc2C)[C@@H]2CCCO[C@@H]21", "ENDPOINT": "Percent Effect", "REPORTED MEASUREMENT": 8.62}
{"MOLECULE": "Cc1nnc2n1CCN(Cc1csc(CC(=O)N(C)C)n1)C2", "ENDPOINT": "Percent Effect", "REPORTED MEASUREMENT": 5.11}
{"MOLECULE": "CC(C(=O)N1CCCC1)N1CCC(c2nccn2Cc2cscn2)CC1 (centres undefined)", "ENDPOINT": "Percent Effect", "REPORTED MEASUREMENT": -3.75}
{"MOLECULE": "Cc1cnn(CC(C)NCc2csc(-c3ccsc3)n2)c1 (centres undefined)", "ENDPOINT": "Percent Effect", "REPORTED MEASUREMENT": -28}
{"MOLECULE": "CC(C)(C)n1ncc2c1NC(=O)CC2c1ccc(OCC(N)=O)cc1 (centres undefined)", "ENDPOINT": "Percent Effect", "REPORTED MEASUREMENT": 21.3}
{"MOLECULE": "CN(C)CCCNC(=O)CNC(=O)N1CCc2c([nH]c3ccccc23)C1", "ENDPOINT": "Percent Effect", "REPORTED MEASUREMENT": -42.4}
{"MOLECULE": "COc1cc(CNC2CCc3nc(C)nn3C2)cc2c1OCCO2 (centres undefined)", "ENDPOINT": "Percent Effect", "REPORTED MEASUREMENT": -2.67}

###

# Percent Effect per entry
- ASSAY TARGET: Aspartate--tRNA(Asp/Asn) ligase (Mycobacterium tuberculosis (strain ATCC 25618 / H37Rv)); also: in the data most compounds retested in dose-response had high values
- Sequence (whole entry): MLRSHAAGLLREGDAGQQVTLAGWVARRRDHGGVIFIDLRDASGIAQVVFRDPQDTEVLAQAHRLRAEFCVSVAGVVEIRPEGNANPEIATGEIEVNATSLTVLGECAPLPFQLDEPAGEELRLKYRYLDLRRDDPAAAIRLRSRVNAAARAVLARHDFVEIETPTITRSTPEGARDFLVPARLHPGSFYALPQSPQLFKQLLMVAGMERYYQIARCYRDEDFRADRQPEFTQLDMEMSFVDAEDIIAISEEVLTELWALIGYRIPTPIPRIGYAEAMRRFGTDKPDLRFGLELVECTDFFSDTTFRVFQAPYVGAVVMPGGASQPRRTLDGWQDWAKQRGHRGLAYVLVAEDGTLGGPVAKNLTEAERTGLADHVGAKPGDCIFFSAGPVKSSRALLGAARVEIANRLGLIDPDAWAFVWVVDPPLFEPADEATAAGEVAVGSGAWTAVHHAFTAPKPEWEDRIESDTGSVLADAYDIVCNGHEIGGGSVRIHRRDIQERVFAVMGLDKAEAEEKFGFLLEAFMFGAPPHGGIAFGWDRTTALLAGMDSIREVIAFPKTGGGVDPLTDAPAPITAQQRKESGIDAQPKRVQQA
- TEST PROTOCOL: Assay for Asp RNA synthetase-1 from Mycobacterium tuberculosis
- Assay type: functional
- Parameters: scale not given: direction of the effect not stated beside the values
- DETAILS: 30 µM

{"COMPOUND": "Cc1ccc(NC(=O)C(C)N2CCCN(c3nccs3)CC2)c(C)c1 (stereo unspecified)", "UNIT NAME": "%", "Percent Effect": -4.7}
{"COMPOUND": "O=C(c1ccc(C2CCCO2)s1)N1Cc2ccccc2C1 (stereo unspecified)", "UNIT NAME": "%", "Percent Effect": 0.948}
{"COMPOUND": "CN(Cc1cccc(F)c1)C(=O)CN1CCOC(Cn2cccn2)C1 (stereo unspecified)", "UNIT NAME": "%", "Percent Effect": -0.139}
{"COMPOUND": "CSc1cc2c(cc1NC(=O)NCC(C)(C)C(N)=O)OCCO2", "UNIT NAME": "%", "Percent Effect": 0.408}
{"COMPOUND": "COc1c(C2CCCN2C(=O)Cc2c(C)noc2C)c(C)nn1C (stereo unspecified)", "UNIT NAME": "%", "Percent Effect": -3.25}
{"COMPOUND": "Cc1cnc(C)c(N2CCN(Cc3ccc(-c4cc[nH]n4)o3)CC2)n1", "UNIT NAME": "%", "Percent Effect": 0.816}
{"COMPOUND": "COc1c(CNC(c2nccn2C)C(C)C)c(C)nn1C (stereo unspecified)", "UNIT NAME": "%", "Percent Effect": 0.122}
{"COMPOUND": "O=C(c1ccco1)N1C[C@@H]2OCCN(CCN3CCCC3)[C@@H]2C1", "UNIT NAME": "%", "Percent Effect": 7.66}
{"COMPOUND": "CN(C)CC(=O)N1CCCC2(CCC(=O)N(CCc3c[nH]cn3)C2)C1 (stereo unspecified)", "UNIT NAME": "%", "Percent Effect": 0.773}
{"COMPOUND": "CN1CCCC1CNC(=O)c1nnn(-c2ccc(F)cc2)c1C1CC1 (stereo unspecified)", "UNIT NAME": "%", "Percent Effect": 3.7}
{"COMPOUND": "CN(C)c1ncccc1CNC(=O)N1CCCC1c1ccsc1 (stereo unspecified)", "UNIT NAME": "%", "Percent Effect": 2.25}
